# testedSystem: DNA gyrase subunit B (Staphylococcus aureus, UniProt P0A0K8)
# Sequence (P0A0K8 whole entry): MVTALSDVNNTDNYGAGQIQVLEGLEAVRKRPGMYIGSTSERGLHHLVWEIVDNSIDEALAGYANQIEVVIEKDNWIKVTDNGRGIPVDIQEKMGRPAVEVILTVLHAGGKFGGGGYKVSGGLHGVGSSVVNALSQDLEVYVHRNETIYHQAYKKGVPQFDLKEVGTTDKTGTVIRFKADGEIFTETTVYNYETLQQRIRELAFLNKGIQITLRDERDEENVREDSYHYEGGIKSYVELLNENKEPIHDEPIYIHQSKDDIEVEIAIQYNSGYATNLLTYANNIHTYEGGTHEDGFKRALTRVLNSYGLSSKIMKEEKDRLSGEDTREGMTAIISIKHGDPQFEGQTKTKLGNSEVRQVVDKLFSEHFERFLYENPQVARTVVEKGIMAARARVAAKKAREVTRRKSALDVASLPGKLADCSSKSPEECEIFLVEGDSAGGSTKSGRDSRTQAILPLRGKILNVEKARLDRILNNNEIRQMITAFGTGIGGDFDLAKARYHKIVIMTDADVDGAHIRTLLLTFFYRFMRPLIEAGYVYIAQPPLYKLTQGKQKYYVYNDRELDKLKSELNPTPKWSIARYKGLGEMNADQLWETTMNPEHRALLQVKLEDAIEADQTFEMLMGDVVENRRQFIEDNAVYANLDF
# testMethodNotes: Inhibition of Staphylococcus aureus DNA gyrase Gyr B subunit by ATPase assay
parameter: Ki

compound CCNC(=O)Nc1nc2cc(-c3cnc(C(C)(C)OP(=O)(O)O)nc3)c(F)c([C@H]3CCCO3)c2[nH]1 , Ki observed: < 9 nM
